test system: THP-1; experiment: Host cell toxicity: THP-1 host nuclei counts in the image-based assay; settings: read-out: GI50 THP-1; PMA-differentiated infected THP-1, 72 h, host nuclei count
REPORTED_PROPERTY: GI50

# COMPOUND, GI50
measured = [
    ("CN1CCc2cccc3c2[C@H]1Cc1ccc(O)c(O)c1-3 [R(-)-Apomorphine]", "> 16.5 µM"),
    ("COC(=O)C[C@](O)(CCC(C)(C)O)C(=O)O[C@@H]1C(OC)=C[C@]23CCCN2CCc2cc4c(cc2[C@H]13)OCO4", "0.1 µM"),
]

query: Supply recorded GI50 for COc1cc2nc(N3CCN(C(=O)C4COc5ccccc5O4)CC3)nc(N)c2cc1OC (stereo not drawn) here.
result: > 16.5 µM

---

tested on: THP-1; experiment: Host cell toxicity: THP-1 host nuclei counts in the image-based assay; conditions: ratio between parasite GI50 and THP-1 GI50
Reported Selectivity values for a set of compounds
The reply should be a number, written without any unit.

// below: answered compounds
# COMPOUND, Selectivity
measured = [
    ("Nc1c2ccccc2nc2ccccc12", 6.82),
    ("COc1cc2nc(N3CCN(C(=O)c4ccco4)CC3)nc(N)c2cc1OC.Cl [Prazocin Hydrochloride]", 3.46),
]

Please find the next compound below.
query: Using known records, supply Selectivity for CC(=O)[C@]1(O)Cc2c(O)c3c(c(O)c2[C@@H](O[C@H]2C[C@H](N)[C@H](O)[C@H](C)O2)C1)C(=O)c1ccccc1C3=O
result: 0.40

---

tested on: L. donovani intracellular amastigotes; experiment: Intracellular amastigote high-throughput image-based assay in infected THP-1 macrophages; type: cell-based, Leishmania donovani; settings: Leishmania donovani, THP-1, 72 h, L. donovani in THP-1, 72 h, parasites per host cell; read-out: GI50 Intracellular amastigote
Below, each entry is listed alongside its reported GI50.
Record the value in µM, omitting the unit from your answer.

Recorded results for 4 molecules are shown here.
# MOLECULE, UNIT_INFO, GI50
data = [
    ("CN(C)C(=S)SSC(=S)N(C)C", "µM", 10.4),
    ("Nc1c2ccccc2nc2ccccc12", "µM", 1.9),
    ("N=C(N)c1ccc(OCCCCCOc2ccc(C(=N)N)cc2)cc1 [Pentamidine Isethionate]", "µM", 9.55),
    ("CC[C@@H](C(=O)[C@@H](C)[C@@H](O)[C@H](C)[C@@H]1O[C@@H]([C@@H](CC)C(=O)O)CC[C@@H]1C)[C@H]1O[C@]2(C=C[C@@H](O)[C@]3(CC[C@@](C)([C@H]4CC[C@](O)(CC)[C@H](C)O4)O3)O2)[C@H](C)C[C@@H]1C", "µM", 0.92),
]

query: Let me know recorded GI50 for Clc1ccc(COC(Cn2ccnc2)c2ccc(Cl)cc2Cl)c(Cl)c1 (stereo not shown) , thanks.
result: 15.4

query: // Input: C=CCN1CC[C@]23c4c5ccc(O)c4O[C@H]2/C(=N/N=C2\CC[C@@]4(O)[C@H]6Cc7ccc(O)c8c7[C@@]4(CCN6CC=C)[C@H]2O8)CC[C@@]3(O)[C@H]1C5 . Output its GI50 only.
result: 3.45

---

The entries below come with measured Specificity values attached.
tested on: L. donovani intracellular amastigotes; assay: Intracellular amastigote high-throughput image-based assay in infected THP-1 macrophages; type: cell-based, Leishmania donovani; conditions: ratio between promastigote GI50 and intracellular amastigote GI50; >2 more active against intracellular amastigote, <0.4 more active against promastigotes
Structures can show the parent of a compound that is named as a salt.
A bare number is all that is needed in reply.

# example entries with known answers
# COMPOUND, Specificity
data = [
    ("COCc1c(C(C)C)nc(C(C)C)c(/C=C/[C@@H](O)C[C@@H](O)CC(=O)O)c1-c1ccc(F)cc1", 0.22),
    ("CC/C(=C(\\c1ccccc1)c1ccc(OCCN(C)C)cc1)c1ccccc1 [Tamoxifen Citrate]", 0.49),
    ("COC(=O)C1=C(C)NC(C)=C(C(=O)OCC(C)C)C1c1ccccc1[N+](=O)[O-] (centres unmarked)", 0.30),
    ("Oc1c(Cl)cc(Cl)c(Cl)c1Cc1c(O)c(Cl)cc(Cl)c1Cl", 3.49),
]

query: // Input: Cc1ccc2c(Cl)cc(Cl)c(O)c2n1 . Output its Specificity only.
result: 1.14

query: Give the reported Specificity for this compound. CCC(c1ccc(OCCN(CC)CC)cc1)C(CC)c1ccc(OCCN(CC)CC)cc1 (centres unmarked)
result: 3.57

query: Provide Specificity value for the following compound: CC(C)(C)CC(C)(C)c1ccc(OCCOCC[N+](C)(C)Cc2ccccc2)cc1.[Cl-] [Benzetonium chloride]
result: 1.13

query: Give the reported value of Specificity for this record: Nc1c2ccccc2nc2ccccc12
result: 4.71
